- MEASURED_TARGET: GST-hASK1 (Homo sapiens (Human), UniProt Q99683)
- Sequence (Q99683 649-946): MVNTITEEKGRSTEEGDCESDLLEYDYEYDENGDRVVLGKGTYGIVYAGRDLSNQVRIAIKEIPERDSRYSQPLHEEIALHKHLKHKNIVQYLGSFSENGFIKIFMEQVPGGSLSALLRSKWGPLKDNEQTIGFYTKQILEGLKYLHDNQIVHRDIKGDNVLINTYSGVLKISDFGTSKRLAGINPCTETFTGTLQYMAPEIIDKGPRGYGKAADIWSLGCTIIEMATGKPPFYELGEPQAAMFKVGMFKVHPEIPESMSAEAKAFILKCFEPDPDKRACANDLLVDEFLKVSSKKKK
- ASSAY_EXPLANATION: ASK1 TR-FRET assay
- Assay type: biochemical
- CONDITION_DESCRIPTION: 5 nM GST-hASK1, 100 μM ATP, 2 μM STK Substrate 3; class given in words
pIC50: −log10 of the molar value.
pIC50 values, listed per item
REPORTED_METRIC: pIC50

SUBSTANCE_SMILES: O=C1Nc2cccc(n2)-c2nncn2C/C=C\COc2c1cccc2C(F)(F)F
MEASURED_TARGET: GST-hASK1 (Homo sapiens (Human), UniProt Q99683)
REPORTED_METRIC: pIC50
RESULT: ≤ 5.00

SUBSTANCE_SMILES: CN1C(=O)c2cc(Br)ccc2OCCCCn2cnnc2-c2cccc1n2
MEASURED_TARGET: GST-hASK1 (Homo sapiens (Human), UniProt Q99683)
REPORTED_METRIC: pIC50
RESULT: ≤ 5.00

SUBSTANCE_SMILES: O=C1Nc2cccc(n2)-c2nncn2C/C=C\COc2c(Br)cccc21
MEASURED_TARGET: GST-hASK1 (Homo sapiens (Human), UniProt Q99683)
REPORTED_METRIC: pIC50
RESULT: ≤ 5.00
